B1: Pistol ribozyme (parent)
chain: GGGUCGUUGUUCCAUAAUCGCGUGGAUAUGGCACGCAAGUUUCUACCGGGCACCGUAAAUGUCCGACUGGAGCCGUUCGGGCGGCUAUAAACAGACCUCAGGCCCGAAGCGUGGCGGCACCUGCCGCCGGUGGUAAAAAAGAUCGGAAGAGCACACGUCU

Variants of: B1
assay-name: aptazyme ON/OFF ratio, guanine; higher = stronger switching; co-transcriptional cleavage with and without guanine
The reader will find reported aptazyme ON/OFF ratio values listed item by item below.
Number, no unit, nothing else.

Would you please look over these solved cases?
changes="U8A U10A C13A" assay_value=1.05
changes="U8A U10G" assay_value=1.62
changes="U8A G9A U10A U11C C12A" assay_value=1.09

Now take the following variant into account.
Input line: Entry U7A G9A U10C U11A C13U has what aptazyme ON/OFF ratio?
Output line: 1.19
